Tested on: zebrafish embryos
Conditions: 5μM through 120 hpf, malformation rate
Each record here notes measured spinal curvature, Mean.
Write down the numeric answer in % and omit the unit.

Here's what some known entries look like.
MOLECULE	MEASURED_QUANTITY	UNIT_ABBREV	RESULT_VALUE
OCC(F)(F)C(F)(F)C(F)(F)C(F)F	spinal curvature, Mean	%	6.67
CCNS(=O)(=O)C(F)(F)C(F)(F)C(F)(F)C(F)(F)C(F)(F)C(F)(F)C(F)(F)C(F)(F)F [compound 24, N-Ethylperfluorooctanesulfonamide]	spinal curvature, Mean	%	1.11
OCCC(F)(F)C(F)(F)C(F)(F)C(F)(F)C(F)(F)C(F)(F)C(F)(F)C(F)(F)F	spinal curvature, Mean	%	2.22
FC(F)=C(F)OC(F)(F)C(F)(F)C(F)(F)F	spinal curvature, Mean	%	1.11
O=C(O)C(F)(F)C(F)(F)C(F)(F)F	spinal curvature, Mean	%	0.00

(Q) Quick one: spinal curvature, Mean for O=C(F)C(F)(F)C(F)(F)C(F)(F)C(=O)F [compound 63, Perfluoroglutaryl difluoride] ?
(A) 0.00

(Q) Then OCCC(F)(F)C(F)(F)C(F)(F)C(F)(F)C(F)(F)C(F)(F)F ?
(A) 0.00

====

Test system: zebrafish embryos
Settings: 5 µM, exposure through 120 hpf
Use 1% as the dividing line for Mortality (%), with the line itself on the condition met side and lower values as condition not met.

MOLECULE	ASSIGNED_CLASS
COC(=O)C(F)(F)C(F)(F)C(F)(F)C(F)(F)C(F)(F)F [compound 36, Methyl perfluorohexanoate]	condition met
FC(F)OCC(F)(F)C(F)(F)F [compound 52, Difluoromethyl 1H,1H-perfluoropropyl]	condition met
CC(F)(F)CC(F)(F)F [compound 29, 1,1,1,3,3-Pentafluorobutane]	condition met

(Q) Tell me whether Mortality (%) is at least 1% here: O=C(O)C(F)(F)OC(F)(F)C(F)(F)OC(F)(F)F [compound 54, Perfluoro-3,6-dioxaheptanoic acid]
(A) condition met

(Q) Also COC(=O)CCC(F)(F)C(F)(F)C(F)(F)C(F)(F)F [compound 39, Methyl 2H,2H,3H,3H-perfluoroheptanoate] , if possible.
(A) condition met

====

tail dysplasia, Mean: recorded values
System: zebrafish embryos
Conditions: 5μM through 120 hpf, malformation rate
Respond numerically; units are % and should not be typed.

COMPOUND	UNIT_ABBREV	tail dysplasia, Mean
O=S(=O)(O)C(F)(F)C(F)(F)C(F)(F)C(F)(F)F	%	0.00
O=C(O)CCC(F)(F)C(F)(F)C(F)(F)C(F)(F)C(F)(F)F	%	1.11
CNS(=O)(=O)C(F)(F)C(F)(F)C(F)(F)C(F)(F)C(F)(F)C(F)(F)C(F)(F)C(F)(F)F [compound 16, N-Methylperfluorooctanesulfonamide]	%	0.00
O=CC(F)(F)C(F)(F)C(F)(F)C(F)F	%	0.00
FCOC(C(F)(F)F)C(F)(F)F [compound 3, Sevoflurane, reference compound]	%	0.00

(Q) Field: tail dysplasia, Mean (zebrafish embryos). Entry: O=C(O)C(F)(F)C(F)(F)C(F)F
(A) 0.00

(Q) Try this compound too: O=C(O)C(F)(F)OC(F)(F)C(F)(F)OC(F)(F)F
(A) 1.11

(Q) Let us now turn to NC(=O)C(F)(F)C(F)(F)C(F)(F)C(F)(F)C(N)=O [compound 58, Octafluoroadipamide]
(A) 0.00

====

Tested on: zebrafish embryos
Settings: 5μM through 120 hpf, malformation rate
Below: a set of entries, each annotated with reported spinal curvature, Mean.
Hi! Could you send only the number? It should be in %, unit omitted.

Check out these entries, answers already filled in.
COMPOUND	spinal curvature, Mean / %
COC(=O)C(F)(F)C(F)(F)C(F)(F)C(F)(F)C(F)(F)F [compound 36, Methyl perfluorohexanoate]	0.00
O=C(O)C(F)(F)OC(F)(F)C(F)(F)OC(F)(F)F	0.00
OCC(F)(F)C(F)(F)C(F)(F)CO	4.44

As a next step, examine the compound that follows.
(Q) GET /values?readout=spinal curvature, Mean&system=zebrafish embryos&item= O=S(=O)([O-])C(F)(F)C(F)(F)C(F)(F)C(F)(F)C(F)(F)C(F)(F)F.[K+] [compound 26, Potassium perfluorohexanesulfonate]
(A) 0.00

====

Entries annotated with measured spinal curvature, Mean
Tested on: zebrafish embryos
Conditions: 5μM through 120 hpf, malformation rate
Give the value, in units of %, as a plain number.

Below are worked cases with known answers.
COMPOUND	UNIT_ABBREV	RESULT_VALUE
CC(=O)C(F)(F)C(F)(F)F	%	2.22
NC(=O)C(F)(F)C(F)(F)C(F)(F)C(F)(F)C(N)=O [compound 58, Octafluoroadipamide]	%	1.11
C=CC(F)(F)C(F)(F)C(F)(F)C(F)(F)F	%	1.11
O=C(O)C(F)(F)C(F)(F)C(F)(F)C(F)(F)C(F)(F)F	%	0.00
CCOC(F)(F)C(F)(F)C(F)(F)C(F)(F)F	%	0.00
N.O=C(O)C(F)(F)C(F)(F)C(F)(F)C(F)(F)C(F)(F)C(F)(F)C(F)(F)F [compound 21, Ammonium perfluorooctanoate]	%	1.11

(Q) Given the entry COC(=O)C(F)(F)C(F)(F)C(F)(F)F [compound 47, Methyl heptafluorobutyrate] , report its measured spinal curvature, Mean.
(A) 1.11

(Q) Now give it for OCCCC(F)(F)C(F)(F)C(F)(F)F too.
(A) 0.00

====

Tested on: zebrafish embryos
Settings: 5μM through 120 hpf, malformation rate
# tail dysplasia, Mean annotations

Recorded tail dysplasia, Mean, per entry:
MOLECULE	RESULT_VALUE
C=CC(F)(C(F)(F)F)C(F)(F)C(F)(F)F (stereo not shown) [compound 25, 2-Vinylperfluorobutane]	0.00%
OCCC(F)(F)C(F)(F)C(F)(F)C(F)(F)C(F)(F)C(F)(F)C(F)(F)C(F)(F)F [compound 64, 8:2 Fluorotelomer alcohol]	0.00%
OCC(F)(F)C(F)(F)C(F)(F)C(F)(F)C(F)(F)C(F)F [compound 67, Dodecafluoroheptanol]	0.00%

Consider now this further molecule.
(Q) Report tail dysplasia, Mean for O=C(O)C(F)(F)C(F)(F)C(F)(F)C(F)(F)C(F)(F)C(F)(F)C(F)(F)F [compound 74, Perfluorooctanoic acid] please.
(A) 0.00%

====

Test system: zebrafish embryos
Conditions: 5 µM, exposure through 120 hpf
MEASURED_QUANTITY: Mortality (%)
The figure you give is taken to be in %; do not add the unit.

# count of solved cases: 3
MOLECULE	MEASURED_QUANTITY	RESULT_VALUE
OC(O)(C(F)C(O)(O)C(F)(F)F)C(F)(F)F [compound 66, 3H-Perfluoro-2,2,4,4-tetrahydroxypentane]	Mortality (%)	1.1
OCC(F)(F)C(F)(F)C(F)(F)C(F)F [compound 48, 1H,1H,5H-Perfluoropentanol]	Mortality (%)	1.1
COC(=O)C(F)(F)C(F)(F)C(F)(F)F [compound 47, Methyl heptafluorobutyrate]	Mortality (%)	0

Next molecule, please.
(Q) Record request: Mortality (%) value, item O=C(O)C(F)(F)C(F)(F)C(F)(F)C(F)(F)C(F)(F)C(F)(F)C(F)(F)F [compound 74, Perfluorooctanoic acid]
(A) 4.4

====

Tested on: zebrafish embryos
Details: 5μM through 120 hpf, malformation rate
MEASURED_QUANTITY: tail dysplasia, Mean (%)
The response must be a number in % with no trailing unit.

COMPOUND	tail dysplasia, Mean / %
O=S(=O)([O-])C(F)(F)C(F)(F)C(F)(F)C(F)(F)C(F)(F)C(F)(F)C(F)(F)C(F)(F)F.[K+] [compound 6, Potassium perfluorooctanesulfonate]	1.11
CC(=O)C(F)(F)C(F)(F)F [compound 55, Methyl perfluoroethyl ketone]	0.00
OCCC(F)(F)C(F)(F)C(F)(F)C(F)(F)C(F)(F)C(F)(F)F [compound 70, 6:2 Fluorotelomer alcohol]	0.00
COC(=O)C(F)(F)C(F)(F)C(F)(F)C(F)(F)C(F)(F)F [compound 36, Methyl perfluorohexanoate]	0.00
NC(O)(C(F)(F)F)C(F)(F)F [compound 33, 2-Aminohexafluoropropan-2-ol]	0.00

(Q) Request the reported tail dysplasia, Mean associated with OCC(F)(F)OC(F)(F)C(F)(F)OC(F)(F)CO [compound 32]
(A) 1.11

(Q) Same question for OCCCCC(F)(F)C(F)(F)C(F)(F)C(F)(F)F [compound 40, 4:4 Fluorotelomer alcohol] please.
(A) 0.00

====

System: zebrafish embryos
Conditions: 5μM through 120 hpf, malformation rate
MEASURED_QUANTITY: spinal curvature, Mean (%)
The reply should be a number in %, with the unit left off.

Previously resolved entries follow.
COMPOUND	EXPERIMENTAL_SYSTEM	UNIT_ABBREV	spinal curvature, Mean
O=C(O)C(F)(F)C(F)(F)C(F)F [compound 4, 4H-Perfluorobutanoic acid]	zebrafish embryos	%	2.22
CNS(=O)(=O)C(F)(F)C(F)(F)C(F)(F)C(F)(F)C(F)(F)C(F)(F)C(F)(F)C(F)(F)F [compound 16, N-Methylperfluorooctanesulfonamide]	zebrafish embryos	%	0.00
OC(O)(C(F)C(O)(O)C(F)(F)F)C(F)(F)F [compound 66, 3H-Perfluoro-2,2,4,4-tetrahydroxypentane]	zebrafish embryos	%	0.00
O=S(=O)(O)C(F)(F)C(F)(F)C(F)(F)C(F)(F)C(F)(F)C(F)(F)C(F)(F)C(F)(F)F [compound 46, Perfluorooctanesulfonic acid]	zebrafish embryos	%	0.00

Read the next record carefully.
(Q) For FC(F)(F)COC(OCC(F)(F)F)OCC(F)(F)F [compound 1, tris(Trifluoroethoxy)methane] , what is its reported spinal curvature, Mean?
(A) 2.22

The measured values listed here are drawn from paper PMC8294803.
